Provenance of the data: paper PMC8119466

Target: recombinant PRL-3 (Homo sapiens, UniProt O75365)
Construct: 6xHis (N, cleaved yes); made in house; host or cells: E. coli One Shot BL21 Star
Sequence (O75365 whole entry): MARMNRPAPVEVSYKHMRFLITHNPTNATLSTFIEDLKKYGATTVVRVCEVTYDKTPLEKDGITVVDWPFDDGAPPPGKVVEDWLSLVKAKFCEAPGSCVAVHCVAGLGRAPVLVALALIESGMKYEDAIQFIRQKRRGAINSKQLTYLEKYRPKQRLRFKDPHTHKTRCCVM
Experiment: In vitro phosphatase assay (DiFMUP hydrolysis), PRL-3
Type: biochemical
Settings: FDA-approved drug screen; compared to DMSO
One threshold, 80%, splits the recorded % Phosphatase Activity (compared to DMSO) PRL-3 values: lower ones are T, equal or higher ones are F.

## Task Below 80% on % Phosphatase Activity (compared to DMSO) PRL-3? Entry O=C(O)/C=C/c1ccc(Cn2ccnc2)cc1 [Ozagrel]
## Result T

## Task Please let me know if O=C(O)c1ccc2c(c1)nc(Nc1cccc(Cl)c1)c1ccncc12 [CX-4945 (Silmitasertib)] shows % Phosphatase Activity (compared to DMSO) PRL-3 below 80%.
## Result F

## Task Does the reported % Phosphatase Activity (compared to DMSO) PRL-3 of Nc1c(CC(=O)[O-])cccc1C(=O)c1ccccc1.O.[Na+] [Amfenac Sodium Monohydrate] stay below 80%?
## Result T
